meta.source: the supplement of paper PMC6555819

- Tested on: RARg:RXRa (NR concentration 270 nM, RXRa partner concentration 90 nM)
- protocolSummary: PBM binding z-score (relative to random genomic background probes); higher = stronger binding; sequences stand for … in GC…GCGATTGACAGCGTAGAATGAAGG
In this section, each of the sequences is paired with its reported PBM binding z-score.
propertyName: PBM binding z-score

[[record]]
sequenceinput = "CCTTACGGGTCAAGGTTATACCACGGGTGGTACG"
propertyname = "PBM binding z-score"
result = 4.96

[[record]]
sequenceinput = "ATATCTAGGTTAGGGTCATTCAGAAAGTAGGGAA"
propertyname = "PBM binding z-score"
result = 4.06

[[record]]
sequenceinput = "ATATGGAGGTTAAGGGTCATTCAGGTTGGTTCGC"
propertyname = "PBM binding z-score"
result = 5.75

[[record]]
sequenceinput = "CAAAATAGGTCAAGGTCAAAGTCGGTTTGTGCCA"
propertyname = "PBM binding z-score"
result = 6.53

[[record]]
sequenceinput = "CCTAGCCGGCCAATCTGGGTCACTCAAGGCTTGA"
propertyname = "PBM binding z-score"
result = 1.14

[[record]]
sequenceinput = "CGTCAAAGTTCAACTAAGGTAACTTAAAGCACGC"
propertyname = "PBM binding z-score"
result = 5.75

[[record]]
sequenceinput = "ATCGAAAGGTCGACGAGGTGAGTATGCACCGTTT"
propertyname = "PBM binding z-score"
result = 4.29

[[record]]
sequenceinput = "CTAACTAGGTCACCAGGACAGTGAAGAGGTTGGA"
propertyname = "PBM binding z-score"
result = 4.69

[[record]]
sequenceinput = "CGACCTAGGTCACCAGGACAGTGAAGAGGTTGGA"
propertyname = "PBM binding z-score"
result = 5.3

[[record]]
sequenceinput = "CGAACTAGGTCAATGGACAGTGAAAGGCGACGTA"
propertyname = "PBM binding z-score"
result = 3.17

[[record]]
sequenceinput = "CGAACTAGGTCACCAGGGCAGTGAAGAGGTTGGA"
propertyname = "PBM binding z-score"
result = 4.53

[[record]]
sequenceinput = "TCGAGTAGGTTGCGGGGGCATTCAGGGATGAAGA"
propertyname = "PBM binding z-score"
result = 2.24

[[record]]
sequenceinput = "CCGAGTAGATTACGAGGGGGCATTCAGTGCGAAT"
propertyname = "PBM binding z-score"
result = 1.31

[[record]]
sequenceinput = "TCGAGTAGGTTACGCGGGCATTCAGGGATGAAGA"
propertyname = "PBM binding z-score"
result = 0.799

[[record]]
sequenceinput = "CAAACTAGGTCAAAGGACAGTGAAAGGCGACGTA"
propertyname = "PBM binding z-score"
result = 3.97

[[record]]
sequenceinput = "CGTACTAGGTCAAAGGACAGTGAAAGGCGACGTA"
propertyname = "PBM binding z-score"
result = 4.02

[[record]]
sequenceinput = "TATACAGGATCAAAGGCCAGAGTACGAATGTCGA"
propertyname = "PBM binding z-score"
result = 0.959

[[record]]
sequenceinput = "TCCAGTAGGTTACGGGGGCATTCAGGGATGAAGA"
propertyname = "PBM binding z-score"
result = 3.99

[[record]]
sequenceinput = "ATATGTAAGTTAGGGTCATTCAGAAAGTAGGGAA"
propertyname = "PBM binding z-score"
result = 4

[[record]]
sequenceinput = "CGAACTAGGTCACCAGGACATTGAAGAGGTTGGA"
propertyname = "PBM binding z-score"
result = 4.42

[[record]]
sequenceinput = "CATACAGGGTCCGCTAGGCCAGAGTAGGGACGGC"
propertyname = "PBM binding z-score"
result = -0.0159

[[record]]
sequenceinput = "ATCTGTAGGTTATCGGGTCATTCAGTTTGCGCAT"
propertyname = "PBM binding z-score"
result = 3.59

[[record]]
sequenceinput = "CGTCAAAGTTCAACTAATGTAACGTAAAGCACGC"
propertyname = "PBM binding z-score"
result = 5.66

